Tested on: leukaemia cell line
Assay Protocol: Cytotoxicity against human leukaemia cell line assessed as cell growth inhibition measured after 48 hrs by sulforhodamine B assay
Format: functional
Short version: TGI at least 70 µM is rule met, less is rule not met.

// below: answered compounds
Smiles Record: COc1cc(NS(=O)(=O)c2ccc(-c3cnc(C4CC4)o3)cc2)ccc1F
Target: leukaemia cell line
Class Label: rule met
--
Smiles Record: O=S(=O)(Nc1cccc2ccccc12)c1ccc(-c2cnc(C3CC3)o2)cc1
Target: leukaemia cell line
Class Label: rule not met
--
Smiles Record: O=S(=O)(Nc1cc(F)cc(Cl)c1)c1ccc(-c2cnc(C3CC3)o2)cc1
Target: leukaemia cell line
Class Label: rule met
--
Smiles Record: O=S(=O)(Nc1ccc(Cl)cc1Cl)c1ccc(-c2cnc(C3CC3)o2)cc1
Target: leukaemia cell line
Class Label: rule met
--
Smiles Record: O=S(=O)(Nc1ccc(F)c(Cl)c1)c1ccc(-c2cnc(C3CC3)o2)cc1
Target: leukaemia cell line
Class Label: rule met
--
Smiles Record: O=S(=O)(Nc1ccc(Cl)c(Cl)c1)c1ccc(-c2cnc(C3CC3)o2)cc1
Target: leukaemia cell line
Class Label: rule not met

Inquiry: Does TGI meet or surpass 70 µM for O=S(=O)(Nc1cccc(Cl)c1)c1ccc(-c2cnc(C3CC3)o2)cc1 ?
Reply text: rule not met

Inquiry: Tell me whether TGI is at least 70 µM here: O=S(=O)(Nc1cc(F)cc(F)c1)c1ccc(-c2cnc(C3CC3)o2)cc1
Reply text: rule met

Inquiry: Hello, I need to know if O=S(=O)(Nc1ccc(F)cc1F)c1ccc(-c2cnc(C3CC3)o2)cc1 has measured TGI not below 70 µM. Thanks!
Reply text: rule not met

Inquiry: Does the reported TGI for Cc1ccc(NS(=O)(=O)c2ccc(-c3cnc(C4CC4)o3)cc2)cc1C fall at or above the 70 µM mark?
Reply text: rule met
